Reference source: ChEMBL document CHEMBL5674860

test system: Colon cancer organoid; assay: Optimized Dual-Glo assay to identify co-culture induced drug vulnerabilities using donated chemical probes and chemogenomics kinase set in O06 CRC organoid and F06 CAF mono and co-culture. […] Cell viability is reported both mono and co-culture models.; assay type: functional, Homo sapiens; parameters: dose or concentration left out as unconfirmed; conditions: Culture type Co-Culture; Transduced with Renilla-dsRed lentivirus
List of Cell Viability values.
Measured Parameter: Cell Viability (%)

- O=C(CCCCCCNC(=O)c1cnc(N(c2ccccc2)c2ccccc2)nc1)NO: 143.43
- COc1ccc(COc2ccc(Cc3cnc(N)nc3N)cc2OC)cc1 [GW632580X]: 83.7807
- O=C1c2ccc(Nc3ccc(F)cc3F)cc2CCc2ccc(OC[C@H](O)CO)cc21 [Skepinone-L]: 88.0925
- C[C@H]1CCCN1Cc1nc2cc(NC(=O)c3ccc4cnccc4c3)ccc2[nH]1: 131.721
- CC(C)Oc1ccc(-c2nn([C@@H](C)c3oc4ccc(F)cc4c(=O)c3-c3cccc(F)c3)c3ncnc(N)c23)cc1F: 112.425
- CCOc1cc(N2CCC(O)CC2)ccc1Nc1ncc2c(n1)N(C)c1ccccc1C(=O)N2C: 128.987
- Cc1c(Nc2ccc(S(=O)(=O)N3CCN(C)CC3)cc2F)nc2ccc(-c3cnn(C4CC4)c3)cn2c1=O: 138.146
- Cn1nc(C(F)(F)F)cc1-c1cnc(N2CCc3cc(S(=O)(=O)Nc4c(F)cc(Cl)cc4F)cc(N4CCCC4=O)c32)nc1: 131.656
- CN(C)c1ncnc(-c2ccc3nc(Nc4cc(CN5CCN(C(=O)CC(F)(F)F)CC5)ccn4)[nH]c3c2)c1Cl: 174.385
- O=C(NCCN1CCOCC1)c1ccc2c(c1)C(=O)c1ccc(Nc3ccc(F)c(NC(=O)c4ccccc4)c3)cc1CC2: 67.282
- COc1cc2c(cc1NS(=O)(=O)c1ccc(Br)cc1C)n(C)c(=O)n2C: 146.987
- O=C(Nc1cccnn1)N1CCC(=Cc2cccc(Oc3ccc(C(F)(F)F)cn3)c2)CC1: 193.053
- CN(C)C(=O)Cn1cc(-c2ccc(-c3nnc4ccccn34)cc2)cn1: 110.192
- CCOC(=O)c1c(/C(C#N)=C\N)c2ccc(Cl)c(Cl)c2n1C: 97.4073
- Cc1cc(C)cc([C@@H]2c3cc(C)ccc3NC(=O)CN2C(=O)c2ccc(Br)s2)c1: 464.523
- O=C(O)c1ccc2c(c1)nc(Nc1cccc(Cl)c1)c1ccncc12: 80.6873
- CC1=C(C(=O)Nc2cc3cn[nH]c3cc2F)C(c2ccc(C(F)(F)F)cc2)CC(=O)N1 (centres undefined): 74.1449
- CCCCNc1ncc(-c2ccc(CN3CCOCC3)cn2)c(N[C@H]2CC[C@H](O)CC2)n1: 123.664
- CN(C)C/C=C/C(=O)Nc1cc2c(Nc3ccc(F)c(Cl)c3)ncnc2cc1O[C@H]1CCOC1.O=C(O)/C=C\C(=O)O.O=C(O)/C=C\C(=O)O [AFATINIB DIMALEATE]: 56.3894
- Cl.O=C(O)c1cc(-c2ccc(C3CCNCC3)cc2)c2ccc(-c3ccc(C(F)(F)F)cc3)cc2c1: 117.47
- CN(C(=O)c1cnn2cccnc12)c1cc2c(cc1N1CCOCC1)C(=O)N(C[C@@H](F)C(C)(C)O)C2: 65.3185
- CN(C)[C@H]1CN(C2CCc3cccc(F)c32)C[C@@H]1c1ccc(N2CCN(S(C)(=O)=O)CC2)cc1 (some centres undefined): 127.07
- Nc1nc(NCc2ccccc2)nc(-c2cccc(CO)c2)n1: 116.001
- CN(C(=O)c1ccccc1)c1cc(N(C)c2ccc3c(c2)CCc2ccc(C(=O)NCCN4CCOCC4)cc2C3=O)ccc1F: 69.6878
- CC(C)S(=O)(=O)c1ccc2nccc(Nc3ccc4scnc4c3)c2c1: 95.5761
- COc1cccc(CNC(=O)c2nc3scc(CN(C)Cc4ccccc4)c3c(=O)[nH]2)c1 [T-26f]: 151.389
- CC(=O)Nc1ncc(CN2CCC[C@H](Cc3cc(C)nc(C)c3)C2)s1: 117.923
- Cc1cc(-n2nc(Cc3cc(F)cc(C(F)(F)F)c3)nc2C)ccc1C(N)=O: 165.614
- CN1CCN(Cc2cc(NC(=O)c3ccc4c(c3)CN(c3ccccc3)CC4)cc(C(F)(F)F)c2)CC1: 89.7391
- OCCn1cc(-c2ccc3c(c2)CCC3=NO)c(-c2ccncc2)n1: 109.303
- Cc1cnc(-c2cc(Cl)ccc2F)cc1-n1c(=O)n(CC(N)=O)c2ccccc21: 66.9379
- COc1cc2c(cc1-c1c(C)noc1C)ncc1[nH]c(=O)n([C@H](C)c3ccccn3)c12: 325.273
- CCCCN(CCCC)C(=O)CN1C[C@@H](c2cc(OC)c3c(c2)OCO3)[C@H](C(=O)O)[C@H]1CC(C)(C)CCC: 133.906
- Cc1ccccc1Oc1cc(-n2c(=O)cc(C(F)(F)F)[nH]c2=O)c2ccccc2c1Cl: 153.89
